biological target: Adenosine receptor A2b (Homo sapiens, UniProt P29275)
Sequence (P29275 whole entry): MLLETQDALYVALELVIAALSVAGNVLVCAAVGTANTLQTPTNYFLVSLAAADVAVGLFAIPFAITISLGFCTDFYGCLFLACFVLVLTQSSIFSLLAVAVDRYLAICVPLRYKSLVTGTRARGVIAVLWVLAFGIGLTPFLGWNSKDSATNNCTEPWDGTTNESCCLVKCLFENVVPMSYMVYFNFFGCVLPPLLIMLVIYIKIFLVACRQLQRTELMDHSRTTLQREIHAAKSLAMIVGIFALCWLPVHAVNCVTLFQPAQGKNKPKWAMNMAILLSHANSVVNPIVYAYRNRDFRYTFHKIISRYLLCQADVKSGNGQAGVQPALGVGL
Property Name: Ki (nM)

Here is how some compounds turned out for Ki.
Cc1cc(-c2sc(NC(=O)N3CC[C@@H]3C)nc2-c2cccc(C#N)c2)cc(C)n1 [US20230293517, Example 6.72]
1.2
Cc1cc(-c2sc(NC(=O)N3CC(C)(C#N)C3)nc2-c2cccc(C#N)c2)c(F)c(C)n1 [US20230293517, Example 6.68]
0.6
Cc1cc(-c2sc(NC(=O)N3CC[C@@H]3CO)nc2-c2cccc(C#N)c2)cc(C)n1 [US20230293517, Example 6.91]
5.3
Cc1cc(-c2sc(NC(=O)N3CC(C)(O)C3)nc2-c2cccc(C#N)c2)c(F)c(C)n1 [US20230293517, Example 6.67]
1

(1) Cc1cc(-c2sc(NC(=O)N3CC4(CNC(=O)N4)C3)nc2-c2cccc(C#N)c2)cc(C)n1 [US20230293517, Example 6.57]
(2) Cc1cc(-c2sc(NC(=O)N3CCC[C@H]3CO)nc2-c2cccc(C#N)c2)cc(C)n1 [US20230293517, Example 6.71]
(3) Cc1cc(-c2sc(NC(=O)N3CCC4(CCCC(=O)N4)CC3)nc2-c2cccc(C#N)c2)cc(C)n1 [US20230293517, Example 6.58]
(4) Cc1cc(-c2sc(NC(=O)N3CC4(CCOCC4)C3)nc2-c2cccc(C#N)c2)cc(C)n1 [US20230293517, Example 6.54]
Sort by Ki, descending. Answer format: the labels, in the requested order.
3, 2, 4, 1

* * *

Target: Adenosine receptor A3 (Homo sapiens)
Sequence (P0DMS8 whole entry): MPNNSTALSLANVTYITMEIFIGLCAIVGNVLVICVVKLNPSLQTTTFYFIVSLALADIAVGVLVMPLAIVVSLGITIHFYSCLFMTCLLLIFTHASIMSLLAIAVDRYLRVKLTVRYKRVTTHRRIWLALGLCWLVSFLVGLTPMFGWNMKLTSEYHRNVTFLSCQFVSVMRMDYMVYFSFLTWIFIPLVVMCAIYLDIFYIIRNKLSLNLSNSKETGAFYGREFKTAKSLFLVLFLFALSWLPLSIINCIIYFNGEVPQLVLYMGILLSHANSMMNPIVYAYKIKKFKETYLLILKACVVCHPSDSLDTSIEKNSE
pKi: −log10 of the molar value.
Property Name: pKi

Cc1cc(-c2sc(NC(=O)N3CC[C@H]3CO)nc2-c2cccc(C#N)c2)cc(C)n1
6.78
Cc1cc(-c2sc(NC(=O)N3CC(C)(O)C3)nc2-c2cccc(C#N)c2)c(F)c(C)n1
6.70
Cc1cc(-c2sc(NC(=O)N3CCC4(CC3)CNC4=O)nc2-c2cccc(C#N)c2)c(F)c(C)n1
6.81

(A) Cc1cc(-c2sc(NC(=O)N3CCC4(CCCC(=O)N4)CC3)nc2-c2cccc(C#N)c2)cc(C)n1
(B) Cc1cc(-c2sc(NC(=O)N3CCC[C@H]3CO)nc2-c2cccc(C#N)c2)cc(C)n1
Which is greater in pKi, the first item A or the second item B ? API: response body contains the label of the selected item.
B
(B: 7.21, A: 6.07)
